B1: DnaJ homolog subfamily C member 5, residues 16 to 77; numbered along this chain, Q9H3Z4 (parent)
chain: LYHVLGLDKNATSDDIKKSYRKLALKYHPDKNPDNPEAADKFKEINNAHAILTDATKRNIYD

# Variants of: B1
# ASSAY_SUMMARY: abundance fitness (aPCA) (normalised: wild type 0, dead -1); higher = more abundant; growth selection in yeast, the domain comes from the species named
# RUN_CONDITIONS: Homo sapiens
Quick rule for you: abundance fitness at -0.1 or higher means Satisfied, lower means Not satisfied.

VARIANT_DESCRIPTOR	LABEL_VALUE
Y20Q	Satisfied

query: Threshold query (abundance fitness >= -0.1) on `D40A`
result: Satisfied

query: # bool: abundance fitness of `L5V` >= -0.1
result: Not satisfied

query: Say whether `N46P` shows abundance fitness of -0.1 or more.
result: Not satisfied

query: Please tell me: is the variant `K22V` at or over -0.1 in terms of abundance fitness?
result: Satisfied

query: Please tell me: is the variant `K26N` at or over -0.1 in terms of abundance fitness?
result: Not satisfied

query: Is reported abundance fitness greater than or equal to -0.1 here: `E44P`
result: Not satisfied

query: Please indicate if the recorded abundance fitness for `Y61T` meets or exceeds -0.1.
result: Satisfied

query: In plain terms: is recorded abundance fitness at least -0.1 for `A38F` ?
result: Not satisfied

query: Does `K31D` have a reported abundance fitness of at least -0.1?
result: Not satisfied

query: Item `K41R` with abundance fitness of -0.1 or above?
result: Not satisfied

query: Confirm if abundance fitness reported for the variant `T12N` is -0.1 or above.
result: Not satisfied

query: In plain terms: is recorded abundance fitness at least -0.1 for `D40P` ?
result: Not satisfied

query: Identify whether the reported abundance fitness of the following variant is -0.1 or greater: `F42P`
result: Not satisfied
